- studyTarget: T1, recombinant human IL-17A (human, UniProt Q16552 24-155)
- T1 construct: Bought recombinant protein (Peprotech AF-200-17); also called Peprotech AF-200-17
- T1 sequence (Q16552 24-155): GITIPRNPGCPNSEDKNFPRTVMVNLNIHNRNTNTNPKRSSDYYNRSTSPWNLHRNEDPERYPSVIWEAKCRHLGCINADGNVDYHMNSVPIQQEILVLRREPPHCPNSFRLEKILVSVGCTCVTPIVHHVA
- procedureText: SPR (BIAcore T200), IL-17A coupled to CM5 chip, single-cycle kinetics
reportedEndpoint: koff (s⁻¹)
The response must be a number in s⁻¹ with no trailing unit.

Example cases with answers are listed next.
binder	valueMeasured
Clone 3.3 (VHH, Human single VH domain) VHH: QVQLVQSGAEVKKPGASVKVSCAASGYTFTDYYLHWVRQAPGQGLEWMGWINPNTGTTKYAREFEGRVTMTRDTSISTAYMELSRLRSDDTAVYYCASMDRDYYDTSGYFGWFDSWGQGTLVTVSS	0.00285
Clone 3.5 (VHH, Human single VH domain) VHH: QVQLVQSGAEVKKPGASVKVSCAASGYTFTDYYLHWVRQAPGQGLEWMGWINPNTGTTKYAREFEGRVTMTRDTSISTAYMELSRLRSDDTAVYYCASLDRDWRSPNDYFGWFDSWGQGTLVTVSS	0.000619

Alright, here's another binder for you.
What koff value was documented for this binder, VH 3.2.1 (clone 3.2 expressed from phagemid vector: with linker residues and His tag) (VHH, Human single VH domain) VHH: QVQLVQSGAEVKKPGASVKVSCKASGYNADAYYINWVRQAPGQGLEWMGSIKPNTGATKYAQKFQGRVTITRDTSISTAYMELSRLRSDDTAVYYCASLDRDTWYPHSYAGWFDAWGQGTLVTVSS ?
0.000252
